- System under test: T1, Epidermal growth factor receptor 2 (HER2 or ErbB-2) on HER2+ SKOV3 cells (human, UniProt P04626 23-1255)
- T1 construct: whole, on cells; Only claim 72 calls it 'human epidermal growth factor receptor 2 (HER2)'
- Assay details: split-luciferase complementation on HER2+ SKOV3 cells (lysates, washed); paired with G3-β9
Listing of recorded Signal-to-Background (Ratio of Relative Luminescence Units) by entry.
Measure: Signal-to-Background (Ratio of Relative Luminescence Units)

[[record]]
binder = "G3-β10* (designed binder, DARPin fusion expressed in E. coli; Used as lysate in the screen and later IMAC-purified; also called DARPin G3 with C-terminal β10*) MRGSHHHHHHGSDLGKKLLEAARAGQDDEVRILMANGADVNAKDEYGLTPLYLATAHGHLEIVEVLLKNGADVNAVDAIGFTPLHLAAFIGHLEIAEVLLKHGADVNAQDKFGKTAFDISIGNGNEDLAEILQKLNGGGSGGGGSGGGGSGVSGWRLFKKIS"
experimental_value = "93 ratio"

[[record]]
binder = "β10*-G3 (designed binder, DARPin fusion expressed in E. coli, used as lysate; also called DARPin G3 with N-terminal β10*) MVSGWRLFKKISGGGSGHHHHHHHHGGGSGDLGKKLLEAARAGQDDEVRILMANGADVNAKDEYGLTPLYLATAHGHLEIVEVLLKNGADVNAVDAIGFTPLHLAAFIGHLEIAEVLLKHGADVNAQDKFGKTAFDISIGNGNEDLAEILQKLN"
experimental_value = "28 ratio"

[[record]]
binder = "β10*-L73J (Fab, V domains shown, Fab fusion expressed in E. coli, used as lysate; also called 73J Fab with β10* at the N-terminus of the light chain) VH: EVQLVESGGGLVQPGGSLRLSCAASGFNLYSSYIHWVRQAPGKGLEWVASIYPYSSYTSYADSVKGRFTISADTSKNTAYLQMNSLRAEDTAVYYCARYYGFAMDYWGQGTLVTVSS VL: DIQMTQSPSSLSASVGDRVTITCRASQSVSSAVAWYQQKPGKAPKLLIYSASSLYSGVPSRFSGSRSGTDFTLTISSLQPEDFATYYCQQGYYYPFTFGQGTKVEIKR"
experimental_value = "126 ratio"

[[record]]
binder = "73JH-β10* (Fab, V domains shown, Fab fusion expressed in E. coli, used as lysate; also called 73J Fab with β10* at the C-terminus of the heavy chain) VH: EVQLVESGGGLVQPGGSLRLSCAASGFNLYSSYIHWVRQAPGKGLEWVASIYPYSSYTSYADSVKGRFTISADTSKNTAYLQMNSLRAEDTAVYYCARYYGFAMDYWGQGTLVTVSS VL: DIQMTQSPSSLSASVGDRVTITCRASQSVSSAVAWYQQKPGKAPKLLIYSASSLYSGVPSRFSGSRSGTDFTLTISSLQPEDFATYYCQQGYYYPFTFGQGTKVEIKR"
experimental_value = "95 ratio"

[[record]]
binder = "β10*-9.29 (designed binder, DARPin fusion expressed in E. coli, used as lysate; also called DARPin 9.29 with N-terminal β10*) MVSGWRLFKKISGGGSGHHHHHHHHGGGSGGSDLGKKLLEAARAGQDDEVRILMANGADVNAHDFYGITPLHLAANFGHLEIVEVLLKHGADVNAFDYDNTPLHLAADAGHLEIVEVLLKYGADVNASDRDGHTPLHLAAREGHLEIVEVLLKNGADVNAQDKFGKTPFDLAIDNGNEDIAEVLQKAA"
experimental_value = "12 ratio"

